B1: library; a variant is named by its letters at N, in order (parent)
chain: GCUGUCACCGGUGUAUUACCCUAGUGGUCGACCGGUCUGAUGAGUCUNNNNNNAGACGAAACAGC

# Variants of: B1
# EXPERIMENTAL DETAILS: normalized RNA/DNA level with ligand (relative to sTRSVctl = 100) (log10 (% of sTRSVctl)); ligand: hypoxanthine (xanthine aptamer); higher = less ribozyme self-cleavage, higher mRNA level
# DETAILS: ligand concentration (+) RNA-Seq: 5 mM, HEK293T, reporter: mCherry (pCS4076), ligand present: yes
PARAMETER MEASURED: normalized RNA/DNA level with ligand (log10)
Please reply with the value in numeric form only.

Input CCGAAG . Output normalized RNA/DNA level with ligand (log10): 1.72

Input GCGGGU . Output normalized RNA/DNA level with ligand (log10): 1.97

Input GGUUAC . Output normalized RNA/DNA level with ligand (log10): 1.96

Input GCAUCG . Output normalized RNA/DNA level with ligand (log10): 1.96

Input CCUCGC . Output normalized RNA/DNA level with ligand (log10): 1.92

Input CGCUAC . Output normalized RNA/DNA level with ligand (log10): 1.86

Input GUGGAG . Output normalized RNA/DNA level with ligand (log10): 1.79

Input UCACUC . Output normalized RNA/DNA level with ligand (log10): 1.99

Input GCGGCG . Output normalized RNA/DNA level with ligand (log10): 1.93

Input AGUGCG . Output normalized RNA/DNA level with ligand (log10): 1.84

Input AAUGUC . Output normalized RNA/DNA level with ligand (log10): 1.98

Input ACUAUA . Output normalized RNA/DNA level with ligand (log10): 1.89

Input UAGUUG . Output normalized RNA/DNA level with ligand (log10): 1.93

Input GUGGGU . Output normalized RNA/DNA level with ligand (log10): 1.94

Input UUAACC . Output normalized RNA/DNA level with ligand (log10): 1.94

Input GGUAAU . Output normalized RNA/DNA level with ligand (log10): 1.92

Input CGGUCU . Output normalized RNA/DNA level with ligand (log10): 1.95

Input CAGUUG . Output normalized RNA/DNA level with ligand (log10): 1.93

Input AAUAGU . Output normalized RNA/DNA level with ligand (log10): 1.87

Input GCAUUG . Output normalized RNA/DNA level with ligand (log10): 1.88

Input UUCCAG . Output normalized RNA/DNA level with ligand (log10): 1.9

Input UGACGC . Output normalized RNA/DNA level with ligand (log10): 1.96

Input GUUAUA . Output normalized RNA/DNA level with ligand (log10): 1.88

Input GAUUUC . Output normalized RNA/DNA level with ligand (log10): 1.97

Input UGGCUG . Output normalized RNA/DNA level with ligand (log10): 2.02

Input UUCAGA . Output normalized RNA/DNA level with ligand (log10): 1.96

Input GAAAAG . Output normalized RNA/DNA level with ligand (log10): 1.83

Input GGGAUA . Output normalized RNA/DNA level with ligand (log10): 1.95

Input AGUUGU . Output normalized RNA/DNA level with ligand (log10): 1.93

Input AUGAUA . Output normalized RNA/DNA level with ligand (log10): 1.9

Input AGUUAU . Output normalized RNA/DNA level with ligand (log10): 1.89

Input GAUGGU . Output normalized RNA/DNA level with ligand (log10): 1.95

Input GUUACA . Output normalized RNA/DNA level with ligand (log10): 1.92

Input GUGUGA . Output normalized RNA/DNA level with ligand (log10): 1.91

Input AGCCAG . Output normalized RNA/DNA level with ligand (log10): 1.89

Input CGUCAA . Output normalized RNA/DNA level with ligand (log10): 1.96

Input AUCAAA . Output normalized RNA/DNA level with ligand (log10): 1.92

Input CAUCGG . Output normalized RNA/DNA level with ligand (log10): 1.92

Input UAAGGA . Output normalized RNA/DNA level with ligand (log10): 1.88

Input GGGACC . Output normalized RNA/DNA level with ligand (log10): 1.98

Input CCAAGG . Output normalized RNA/DNA level with ligand (log10): 1.83

Input AAGGUU . Output normalized RNA/DNA level with ligand (log10): 1.93

Input UGGACA . Output normalized RNA/DNA level with ligand (log10): 1.95

Input GCCCUG . Output normalized RNA/DNA level with ligand (log10): 1.87

Input CACUAC . Output normalized RNA/DNA level with ligand (log10): 1.9

Input CUGUUC . Output normalized RNA/DNA level with ligand (log10): 1.97

Input GGUAAA . Output normalized RNA/DNA level with ligand (log10): 1.9

Input AGAAGC . Output normalized RNA/DNA level with ligand (log10): 1.92

Input GAUAUA . Output normalized RNA/DNA level with ligand (log10): 1.91

Input GUAUCC . Output normalized RNA/DNA level with ligand (log10): 1.96

Input CAUAGC . Output normalized RNA/DNA level with ligand (log10): 1.92

Input ACCUAU . Output normalized RNA/DNA level with ligand (log10): 1.91

Input ACCGAG . Output normalized RNA/DNA level with ligand (log10): 1.76

Input UCCUCG . Output normalized RNA/DNA level with ligand (log10): 1.97

Input UGAGAC . Output normalized RNA/DNA level with ligand (log10): 1.89

Input UUAAGC . Output normalized RNA/DNA level with ligand (log10): 1.94

Input CAACAC . Output normalized RNA/DNA level with ligand (log10): 1.89

Input GAACAC . Output normalized RNA/DNA level with ligand (log10): 1.95

Input CCCCGG . Output normalized RNA/DNA level with ligand (log10): 1.99

Input CACCCC . Output normalized RNA/DNA level with ligand (log10): 1.96

Input UUUCGC . Output normalized RNA/DNA level with ligand (log10): 1.95

Input CAUAUU . Output normalized RNA/DNA level with ligand (log10): 1.91

Input AAUACA . Output normalized RNA/DNA level with ligand (log10): 1.88

Input CGCACC . Output normalized RNA/DNA level with ligand (log10): 1.93

Input ACAGCU . Output normalized RNA/DNA level with ligand (log10): 1.92

Input AAUAGG . Output normalized RNA/DNA level with ligand (log10): 1.75

Input CUGAGC . Output normalized RNA/DNA level with ligand (log10): 1.95

Input CAGAAC . Output normalized RNA/DNA level with ligand (log10): 1.88

Input CCUGAC . Output normalized RNA/DNA level with ligand (log10): 1.92

Input GUUGCA . Output normalized RNA/DNA level with ligand (log10): 1.92

Input CACGCC . Output normalized RNA/DNA level with ligand (log10): 1.99

Input AUCUCA . Output normalized RNA/DNA level with ligand (log10): 1.96

Input UAACGC . Output normalized RNA/DNA level with ligand (log10): 1.92

Input CGCAGC . Output normalized RNA/DNA level with ligand (log10): 1.96

Input CCUGUU . Output normalized RNA/DNA level with ligand (log10): 2.04

Input GUCGCG . Output normalized RNA/DNA level with ligand (log10): 1.93

Input AAGGCC . Output normalized RNA/DNA level with ligand (log10): 1.96

Input GAAUCU . Output normalized RNA/DNA level with ligand (log10): 1.9

Input GUUUUC . Output normalized RNA/DNA level with ligand (log10): 1.92

Input AGACCG . Output normalized RNA/DNA level with ligand (log10): 1.93

Input GGUUUG . Output normalized RNA/DNA level with ligand (log10): 1.9

Input GAUUAA . Output normalized RNA/DNA level with ligand (log10): 1.95

Input UUUUCC . Output normalized RNA/DNA level with ligand (log10): 1.94

Input GCCGUA . Output normalized RNA/DNA level with ligand (log10): 1.97

Input CUUGUC . Output normalized RNA/DNA level with ligand (log10): 2

Input AAUCCG . Output normalized RNA/DNA level with ligand (log10): 1.86

Input GAGGAA . Output normalized RNA/DNA level with ligand (log10): 1.88

Input CAGUAC . Output normalized RNA/DNA level with ligand (log10): 1.9

Input UUCGCC . Output normalized RNA/DNA level with ligand (log10): 1.95

Input UUCGAC . Output normalized RNA/DNA level with ligand (log10): 1.9

Input GCAGGU . Output normalized RNA/DNA level with ligand (log10): 1.93
